System: Plutella xylostella
test-protocol: Toxicity in Plutella xylostella larvae after 24 hrs
Type: organism-based
test-context: in vivo
observation-type: LD50 (µg/g)
The figure you give is taken to be in µg/g; do not add the unit.

Below are worked cases with known answers.
C/C=C(\C)C(=O)O[C@H]1C[C@@H](OC(C)=O)[C@@]2(C(=O)OC)CO[C@H]3[C@@H](O)[C@@](C)([C@]45O[C@@]4(C)[C@H]4C[C@@H]5O[C@@H]5OC=C[C@@]54O)[C@@H]4[C@@H](OC(C)=O)OC[C@@]14[C@@H]32 [AZADIRACHTIN L]	10.27
COC(=O)[C@H]1OC[C@@]23[C@@H](OC(=O)CC(C)C)C[C@@H](OC(C)=O)[C@@]4(C(=O)OC)CO[C@@H]([C@@H](O)[C@@](C)([C@]56O[C@@]5(C)[C@H]5C[C@@H]6O[C@@H]6OC=C[C@@]65O)[C@H]12)[C@@H]43 [AZADIRACHTIN O]	3.92

Hi! What's the reported LD50 for C/C=C(\C)C(=O)O[C@H]1C[C@@H](OC(C)=O)[C@@]2(C(=O)OC)CO[C@H]3[C@@H](O)[C@@](C)([C@]45O[C@@]4(C)[C@H]4C[C@@H]5O[C@@H]5OC=C[C@@]54O)[C@@H]4[C@@H](O)OC[C@@]14[C@@H]32 on Plutella xylostella?
5.75

Hi! What's the reported LD50 for C/C=C(\C)C(=O)O[C@H]1C[C@@H](OC(C)=O)[C@@]2(C(=O)OC)CO[C@H]3[C@@H](O)[C@@](C)([C@]45O[C@@]4(C)[C@@H]4C[C@H]5O[C@@H]5OC=C[C@@]54O)[C@H]4[C@]1(CO[C@]4(O)C(=O)OC)[C@@H]32 [AZADIRACHTIN A] on Plutella xylostella?
7.04

Hi! What's the reported LD50 for C/C=C(\C)C(=O)O[C@@H]1C[C@H](O)[C@]23CO[C@H](C(=O)OC)[C@H]2[C@](C)([C@]24O[C@@]2(C)[C@H]2C[C@@H]4O[C@@H]4OC=C[C@@]42O)[C@H](O)[C@@H]2OC[C@@]1(C(=O)OC)[C@H]23 [AZADIRACHTIN B] on Plutella xylostella?
4.85

* * *

Test system: Plutella xylostella
test-protocol: Toxicity in Plutella xylostella larvae after 48 hrs
Format: organism-based
test-context: in vivo
Consider the following partition of reported LD50 into named classes: bin A: < 2 µg/g; bin B: ≥ 2 µg/g and < 4 µg/g; bin C: ≥ 4 µg/g

COC(=O)[C@@]12CO[C@H]3[C@@H](O)[C@@](C)([C@]45O[C@@]4(C)[C@H]4C[C@@H]5O[C@@H]5OC=C[C@@]54O)[C@@H]4[C@@H](O)OC[C@]4([C@@H](OC(=O)CC(C)C)C[C@H]1OC(C)=O)[C@@H]32	bin A

Form field 'band' for COC(=O)[C@H]1OC[C@@]23[C@@H](OC(=O)CC(C)C)C[C@@H](OC(C)=O)[C@@]4(C(=O)OC)CO[C@@H]([C@@H](O)[C@@](C)([C@]56O[C@@]5(C)[C@H]5C[C@@H]6O[C@@H]6OC=C[C@@]65O)[C@H]12)[C@@H]43
bin A

Form field 'band' for C/C=C(\C)C(=O)O[C@@H]1C[C@H](O)[C@]23CO[C@H](C(=O)OC)[C@H]2[C@](C)([C@]24O[C@@]2(C)[C@H]2C[C@@H]4O[C@@H]4OC=C[C@@]42O)[C@H](O)[C@@H]2OC[C@@]1(C(=O)OC)[C@H]23
bin B

Form field 'band' for C/C=C(\C)C(=O)O[C@H]1C[C@@H](OC(C)=O)[C@@]2(C(=O)OC)CO[C@H]3[C@@H](O)[C@@](C)([C@]45O[C@@]4(C)[C@H]4C[C@@H]5O[C@@H]5OC=C[C@@]54O)[C@@H]4[C@@H](C(=O)OC)OC[C@@]14[C@@H]32
bin C

Form field 'band' for COC(=O)[C@H]1OC[C@@]23[C@@H](OC(C)=O)C[C@@H](OC(C)=O)[C@@]4(C(=O)OC)CO[C@@H]([C@@H](O)[C@@](C)([C@]56O[C@@]5(C)[C@H]5C[C@@H]6O[C@@H]6OC=C[C@@]65O)[C@H]12)[C@@H]43
bin A

Form field 'band' for C/C=C(\C)C(=O)O[C@H]1C[C@@H](OC(C)=O)[C@@]2(C(=O)OC)CO[C@H]3[C@@H](O)[C@@](C)([C@]45O[C@@]4(C)[C@H]4C[C@@H]5O[C@@H]5OC=C[C@@]54O)[C@@H]4[C@@H](OC(C)=O)OC[C@@]14[C@@H]32
bin C
